Each item that follows carries a reported pIC50.
- target: pSTAT3 (pY705-STAT3) (Homo sapiens, UniProt P40763)
- Construct: host or cells: cryopreserved PBMC
- Sequence (P40763 whole entry): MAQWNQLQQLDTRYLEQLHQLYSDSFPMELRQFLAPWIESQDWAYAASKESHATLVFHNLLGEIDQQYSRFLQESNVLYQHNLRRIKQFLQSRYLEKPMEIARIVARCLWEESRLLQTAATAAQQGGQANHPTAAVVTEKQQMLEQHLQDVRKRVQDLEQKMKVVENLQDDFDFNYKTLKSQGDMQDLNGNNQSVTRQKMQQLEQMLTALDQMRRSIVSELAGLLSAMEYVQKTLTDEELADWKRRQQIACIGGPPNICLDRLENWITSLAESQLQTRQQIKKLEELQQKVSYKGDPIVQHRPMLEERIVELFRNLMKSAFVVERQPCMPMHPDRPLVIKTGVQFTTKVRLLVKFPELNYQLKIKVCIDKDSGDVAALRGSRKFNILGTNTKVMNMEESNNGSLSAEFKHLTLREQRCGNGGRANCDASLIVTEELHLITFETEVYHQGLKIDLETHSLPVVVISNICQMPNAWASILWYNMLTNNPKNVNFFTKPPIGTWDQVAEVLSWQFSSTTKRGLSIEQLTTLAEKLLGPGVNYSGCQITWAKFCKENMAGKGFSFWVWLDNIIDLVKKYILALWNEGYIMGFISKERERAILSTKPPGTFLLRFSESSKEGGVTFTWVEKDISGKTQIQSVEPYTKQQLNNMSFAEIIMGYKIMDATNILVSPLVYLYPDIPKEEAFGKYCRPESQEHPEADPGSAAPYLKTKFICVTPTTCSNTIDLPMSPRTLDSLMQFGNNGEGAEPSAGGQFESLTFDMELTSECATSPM
- assay.comment: MSD-pSTAT-PBMC Assay (pSTAT3, IL-6 stimulated)
- Format: cell-based
- test.context: PBMC, compound 3 hrs, then 10 ng/mL IL-6 for 10 min; MSD pY705-STAT3; read-out: pSTAT3
pIC50: −log10 of the molar value.

Sample answers from the record:
Bench note: what pIC50 did CC(C)OC(=O)[C@@H](C)CNP(=O)(Oc1ccccc1)C(F)(F)c1ccc2sc(C(=O)N[C@H]3C[C@@H]4C[C@@H]4C[C@H]4CC[C@@H](C(=O)N5CC(C(=O)N6CCOCC6)C5)N4C3=O)cc2c1 (some centres unmarked) show? < 5.52

Now the compound CC(C)OC(=O)OCOP(=O)(OCOC(=O)OC(C)C)C(F)(F)c1ccc2sc(C(=O)N[C@H]3C[C@@H]4C[C@@H]4C[C@H]4CC[C@@H](C(=O)N5CC(C(=O)N6CCOCC6)C5)N4C3=O)cc2c1 > 7.00

Now the compound CCCOC(=O)[C@H](C)NP(=O)(Oc1ccccc1)C(F)c1ccc2sc(C(=O)N[C@H]3C[C@H]4C[C@H]4C[C@H]4CC[C@@H](C(=O)N5CC(c6ncccn6)C5)N4C3=O)cc2c1 (some centres unmarked) > 7.00

Now the compound CC(C)CC(=O)SCCOP(=O)(OCCSC(=O)CC(C)C)C(F)(F)c1ccc2sc(C(=O)N[C@H]3C[C@H]4C[C@H]4C[C@H]4CC[C@@H](C(=O)N5CC(c6cncnc6)C5)N4C3=O)cc2c1 > 7.00

From here, focus on the item given below.
Bench note: what pIC50 did CC(C)(C)C(=O)SCCOP(=O)(Cc1ccc2sc(C(=O)N[C@H]3C[C@@H]4C[C@@H]4C[C@H]4CC[C@@H](C(=O)N5CC(n6ccnc6)C5)N4C3=O)cc2c1)OCCSC(=O)C(C)(C)C show? 6.00 to 7.00
